# Target Under Test: Prothrombin (Homo sapiens)
# Experiment Notes: Inhibition of thrombin
Readout Kind: IC50

CC1(C)CCC[C@H]2[C@H]1CC[C@@]1(C)[C@@H]2CC/C(=C\OS(=O)(=O)O)[C@@H]1CCc1ccoc1 47.7 µM

Turning now to a further compound:
Entry "C/C(=C\Cc1cc(O)ccc1O)CCC[C@@H](C)[C@@H](C[C@@H]1CCC[C@H]2C(C)(C)CCC[C@@]12C)OS(=O)(=O)O" : reported IC50 = ?
> 136 µM

These measurements were taken from BindingDB's records for doi:10.1021/np970376z.
